# koff annotations
Molecular target: T1, His-tagged human LILRB2 polypeptide (human, UniProt Q8N423 22-460)
T1 construct: SPR analyte; also called His-tagged human LILBR2 polypeptide; not shown: His tag
T1 sequence (Q8N423 22-460 limits assumed): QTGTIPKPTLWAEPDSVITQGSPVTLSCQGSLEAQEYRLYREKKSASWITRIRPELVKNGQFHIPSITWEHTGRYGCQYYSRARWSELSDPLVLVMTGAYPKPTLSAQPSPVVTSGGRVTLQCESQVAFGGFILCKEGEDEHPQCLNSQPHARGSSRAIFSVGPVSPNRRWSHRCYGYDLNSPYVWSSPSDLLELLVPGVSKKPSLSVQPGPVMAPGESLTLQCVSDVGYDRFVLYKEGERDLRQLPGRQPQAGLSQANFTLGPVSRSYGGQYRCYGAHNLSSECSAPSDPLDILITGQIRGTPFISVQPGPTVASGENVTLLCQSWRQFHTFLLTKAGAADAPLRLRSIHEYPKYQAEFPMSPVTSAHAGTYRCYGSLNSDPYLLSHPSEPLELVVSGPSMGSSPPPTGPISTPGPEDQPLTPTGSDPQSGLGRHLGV
Experiment: SPR, antibody on CM5 chip, His-LILRB2 analyte, 1:1 model
Hi! Could you send only the number? It should be in s⁻¹, unit omitted.

q: koff lookup needed for Antibody 9B6 (antibody, V domains shown, Mouse hybridoma mAb purified from ascites) VH: DVQLVESGGGLVQPGWSRILSCAASGFTFSNFGMHWVRQAPEKGLEWVAYISSGSGTIYYSDTVRGRFTISRDNPKNTLFLLMTSLRSEDTAMYYCTRSDYDGDWFFDVWGAGTTVTVSS VL: DIVMTQSHRFLSTSVGDRVTITCKASQDVTTAVAWCQQKPGQSPKLLIYSASFRYTGVPDRFTGSGSGTDFTFTINNVQAEDLALYYCQQHFTTPLTFGAGTKLELK , thanks.
a: 0.000864

q: What does the data say about its koff? Entry: Antibody 10D7 (antibody, V domains shown, Mouse hybridoma mAb purified from ascites) VH: EVKLVESGGGLVKPGGSLKLSCAASGFTFSSYGMSWVRQTPEKRLEWVATISGAFSYTYYPDSVKGRFTISRDNAKNNLYLQMSSLRSEDTAFYYCARHDNSLYYAMDYWGQGTSVTVSS VL: NVQITQSPSYLAASPGETITINCRTSKSITKYLAWYQEQPGKTNKLLIYSGSTLQSGIPSRFSGSGSGTDFTLTISSLEPEDFAMYYCQQHNEYPWTFGGGTKLEIK
a: 0.000107

q: Field request: koff | item: Antibody 11B12 (antibody, V domains shown, Mouse hybridoma mAb purified from ascites) VH: DVQLQESGPGLVKPSQSLSLTCSVTGYSITSGYYWNWIRQFPGNKLEWMGYISYDGNNNYNPSLKNRISITRDTSKNQFFLKLNSVTTEDTATYYCAREESTMITTAWFAYWGQGTLVTVSA VL: DIQMTQSPASLSVSVGETVTITCRASENIYSNLAWYQQKQGKSPQLLVYGATNLADGVPSRFSGSGSGTQYSLKINSLQSEDFGSYFCQHFWDTPYTFGGGTKLEIK
a: 0.00032

These entries and their values trace back to patent US20240109962A1.
